test: Aqueous solubility of compound at pH 7.4; assay type: physicochemical
Exercise: for every item that follows, state its recorded solubility.
Answers are plain numbers, in mg/mL.

Compound: COc1ccc2c(c1)cc1n2CCN2C(=O)c3cc(F)ccc3N(C)C12 (configuration not stated)
solubility, mg/mL: 0.0015

Requested field: solubility. Item: COc1ccc2c(c1)cc1n2CCn2c-1[n+](C)c1ccc(F)cc1c2=O
0.85

###

Field: pIC50. Provide a value for each of the compounds that follow.
system: SK-HEP1; assay: Antiproliferative activity against human SKHEP1 cells assessed as reduction in cell viability incubated for 72 hrs by CCK8 assay; type: functional, cell-based; conditions: SK-HEP1, 72 h
Numbers only, as −log10 of the molar value.

Compound: CC[C@@]1(O)C(=O)OCc2c1cc1n(c2=O)Cc2cc3ccccc3nc2-1
pIC50: 6.05

With those in mind, consider the next compound.
What does the data say about its pIC50? Entry: COc1ccc2c(c1)cc1n2CCN2C(=O)c3cc(F)ccc3N(C)C12 (configuration not stated)
5.89
